Measured FACS reading of individual entries
# assay-system: T1, Claudin 18.2 (CLDN18.2), expressed on CHOS-CLDN 18.2 / HEK293-CLDN 18.2 / HCC827-CLDN 18.2 cells (human, UniProt P56856-2 1-261)
# T1 construct: whole, on cells; The species is not repeated for the CHOS-CLDN 18.2 cells; also called claudin-18A2
# assay-overview: FACS, CHOS-CLDN18.2 cells, 0.313 µg/ml
Respond numerically, and do not add a unit to the figure.

- binder: "QP14371435 (antibody, human IgG1, kappa, V domains shown, Humanized from QP190191) VH: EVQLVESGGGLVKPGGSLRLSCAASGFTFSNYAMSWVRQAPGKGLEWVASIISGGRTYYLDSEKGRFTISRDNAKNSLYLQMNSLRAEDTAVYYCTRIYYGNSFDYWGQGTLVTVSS VL: DIVMTQSPDSLAVSLGERATISCKSSQSLLNSGNQKNYLTWYQQKPGQPPKLLIYWASTRESGVPDRFTGSGSGTDFTLTISSLQAEDVAVYYCQNDYSYPFTFGQGTKLEIKR"
  FACS reading: 72000

Pending binder:
Req: Quick one: FACS reading of QP190191 (antibody, human IgG1, V domains shown, Chimeric; also called 36A2; mouse-derived chimeric antibody QP190191) VH: EVKLVESGGGLVKPGGSLKLSCAASGFTFSNYAMSWVRQTPEKRLEWVASIISGGRTYYLDSEKGRFTISRDNARNNLYLQMSSLRSEDTAMYYCTRIYYGNSFDYWGQGTTLTVSS VL: DIVMTQSPSSQTVTAGEKVTMSCKSSQSLLNSGNQKNYLTWYQQKPGQPPKLLIYWASTRESGVPDRFTGSGSGTDFTLTISNMQAEDLAVYYCQNDYSYPFTFGSGTKLEIK ?
Resp: 54200
